Test: CREB reporter modulators under forskolin, primary screen, cell-based, PC12, CRE-LacZ reporter, forskolin-stimulated (AID 1146);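 further: PC12 cells with 6xCRE LacZ reporter stimulated by forskolin 10 µM; beta-galactosidase reporter signal reflecting CREB driven transcription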
Conditions: luminescence, 4.5 h, higher = more signal, called active from +8 up or from −8 down
Listing: z-score of selected compounds

Compound	z-score
C=CCNC(=O)[C@@H]1[C@H]2C(=O)O[C@H](c3ccccc3)[C@H](c3ccccc3)N2[C@H](c2ccc(O)cc2)[C@@]12C(=O)N(C(=O)OCCOC)c1ccccc12	-0.0406
O=C(CCN1CCOCC1)c1cccc(O)c1	5.37
COc1ccc(CCNC(=O)[C@@]2(Sc3ccc(C)cc3)CC(=O)N(Cc3ccccc3Cl)[C@@H]2c2ccc(CO)cc2I)cc1	1.12
Cc1ccc(S[C@]2(C(=O)NCCN3CCOCC3)CC(=O)N(Cc3cc(C(F)(F)F)cc(C(F)(F)F)c3)[C@@H]2c2ccc(CO)cc2I)cc1	-0.0376
O=C1OCC=C[C@H]2OC34C=CCN(c5ccc6ccccc6c5)C(=O)[C@H]3N(CCCO)C(=O)[C@@H]4[C@@H]12 (some centres undefined)	0.27
COc1ccc(CCNC(=O)[C@@]2(c3ccc([N+](=O)[O-])cc3)CC(=O)N(CC34CC5CC(CC(C5)C3)C4)[C@@H]2c2ccc(CO)cc2)cc1	0.164
C#CCN(C(/C=C/c1ccccc1)CO)C(C(=O)O)c1ccccc1 (centres undefined)	-0.53
CC(C)C[C@@H]1NC(=O)[C@H]2C[C@@H](C(=O)NCCCCCNC(=O)CS)[C@@H](c3cccc(OCCO)c3)N2C1=O	0.0824
O=C/C=C/c1ccc(Cl)cc1	0.716
[N-]=[N+]=NCc1ccccc1C[C@]1(C(=O)O)N=C(c2ccc(OCCCO)cc2)O[C@H]1c1ccccc1	2.11
COCCOC(=O)N1C(=O)[C@@]2(c3cc(C#Cc4ccc(OC)cc4)ccc31)[C@H](C(=O)N1CCN(c3ncccn3)CC1)[C@H]1C(=O)O[C@H](c3ccccc3)[C@H](c3ccccc3)N1[C@@H]2c1ccc(O)cc1	0.0921
Cc1ccc(S[C@]2(C(=O)NCc3ccccc3)CC(=O)N(Cc3ccccc3)[C@@H]2c2ccc(CO)cc2)cc1	-0.26
COc1ccc(NN2C(C(O)c3ccc(OC)c(OCc4ccccc4)c3)C=CC3C(=O)N(C4CCCCC4)C(=O)C32)cc1 (centres undefined)	0.693
CC(C)CNC(=O)[C@@]1(c2ccc([N+](=O)[O-])cc2)CC(=O)N(CC23CC4CC(CC(C4)C2)C3)[C@@H]1c1ccc(CO)cc1	-1.32
COCCCNC(=O)[C@@]1(C)c2ccccc2C(=O)N(Cc2cc(C(F)(F)F)cc(C(F)(F)F)c2)[C@H]1c1ccc(CO)cc1	0.243
CC(C)c1ccc(NN2C(C(O)c3cccc(O)c3)C=CC3C(=O)N(c4ccccc4)C(=O)C32)cc1 (centres undefined)	1.67
O=C1O[C@H](c2ccccc2)[C@H](c2ccccc2)N2[C@H]1[C@@H](C(=O)NC[C@H](O)c1ccccc1)[C@]1(C(=O)Nc3ccc(C#CCCO)cc31)[C@H]2c1ccc(O)cc1	0.0393
C=C[C@@H](COC(C)=O)N(Cc1ccccc1[N+](=O)[O-])S(=O)(=O)c1ccc(Br)cc1	-1.41
CC(C)(C)OC(=O)CC[C@@]1(C(=O)NCCN2CCOCC2)N=C(c2ccc(OCCCO)cc2)O[C@@H]1c1ccccc1	-0.998
Cc1ccc(S[C@]2(C(=O)NCC(C)C)CC(=O)N(Cc3ccccc3Cl)[C@@H]2c2ccc(CO)cc2)cc1	-0.227
CCOC(=O)[C@H]1C/C=C/C[C@H](C(=O)OCC)C(=O)O[C@H]2[C@@H](OC)O[C@H](CO)[C@@H](OC(=O)Nc3ccc4c(c3)OCO4)[C@@H]2OC1=O	-1.61
COc1ccc([Si](C)(C)[C@@H]2[C@@H](CC(=O)N(CCO)Cc3ccccc3)O[C@]3(C(=O)N(C)c4ccccc43)[C@H]2C)cc1	1.37
NCCCCCCNC(=O)[C@H]1C[C@H]2C(=O)NCC(=O)N2[C@H]1c1cccc(OCCO)c1	-0.405
C=C(CCCC)C(=O)CC[C@H](OC(=O)c1cccnc1)c1cccc(OCCO)c1	0.189
C=C(COC)C(=O)CC[C@H](OC(C)=O)c1cccc(OCCO)c1	0.203
COCCOC(=O)N1C(=O)[C@@]2(c3cc(C#CCC(C(=O)OC)C(=O)OC)ccc31)[C@H](c1ccc(O)cc1)N1[C@H](c3ccccc3)[C@H](c3ccccc3)OC(=O)[C@H]1[C@@H]2C(N)=O	0.305
[N-]=[N+]=Nc1ccccc1[C@H]1OC(c2ccc(OCCCO)cc2)=N[C@@]1(CCS(=O)(=O)c1ccccc1)C(=O)O	-0.197
COc1ccc(C#Cc2ccc3c(c2)[C@]2(C(=O)N3)[C@H](c3ccc(O)cc3)N3[C@H](c4ccccc4)[C@H](c4ccccc4)OC(=O)[C@H]3[C@@H]2C(=O)N2CCCCCCC2)cc1	-0.648
COCC1=C2[C@@H](CCc3ccccc3)OB(O)C[C@@H]2[C@@H]2C(=O)N(Cc3ccccc3)C(=O)[C@@H]2C1	-0.0777
